# Test system: Human immunodeficiency virus 1
# Method notes: Antiviral activity against HIV1 3B infected in human HOS cells expressing human CXCR4/CCR5/CD4/pHIV-LTR luciferase assessed as inhibition of viral infection to cells
# Assay type: functional, organism-based
# Condition notes: Human immunodeficiency virus 1, 3B
Endpoint: IC50 (nM)

Compound	IC50 / nM
NCCCCN(Cc1nc2ccccc2[nH]1)C1CCCc2cccnc21 (racemic)	23
NCCCCN(Cc1cn2ccccc2n1)C1CCCc2cccnc21 (racemic)	42

[A] CN(C)C(=O)NCCCc1c(CN(C)[C@H]2CCCc3cccnc32)ncc2ccccc12
[B] CN(C)CCCc1c(CN(C)[C@H]2CCCc3cccnc32)ncc2ccccc12
Choose between A and B : whose measured IC50 value is numerically larger? Response format: the label of the selected entry. A

----------
# Method notes: Cytotoxicity against human HOS cells expressing human CXCR4/CCR5/CD4/pHIV-LTR luciferase
# Assay type: cell-based
Endpoint: CC50 (nM)
Expressed in nM, but write only the number.

Compound	CC50, nM
CN(Cc1ncc2ccccc2c1CCC#N)[C@H]1CCCc2cccnc21	950
CN(Cc1ncc2ccccc2c1C#N)[C@H]1CCCc2cccnc21	1300
CN(C)C(=O)NCCCc1c(CN(C)[C@H]2CCCc3cccnc32)ncc2ccccc12	750

Tell me the measured CC50 of `CN1CCC[C@H]1C(=O)NCc1c(CN(C)[C@H]2CCCc3cccnc32)ncc2ccccc12` , please. 540

Tell me the measured CC50 of NCCCCN(Cc1nccc2ccccc12)C1CCCc2cccnc21 (racemic) , please. 8200

Tell me the measured CC50 of `CN(Cc1cc2ccccc2cn1)[C@H]1CCCc2cccnc21` , please. 650

Tell me the measured CC50 of `CN(Cc1ncc2ccccc2c1CN)[C@H]1CCCc2cccnc21` , please. 3100

Tell me the measured CC50 of `CN(Cc1ncc2ccccc2c1CCCNS(C)(=O)=O)[C@H]1CCCc2cccnc21` , please. 690

Tell me the measured CC50 of `CN(C)CCCc1c(CN(C)[C@H]2CCCc3cccnc32)ncc2ccccc12` , please. 650

Tell me the measured CC50 of `CN(Cc1ncc2ccccc2c1CCCNC(=N)N)[C@H]1CCCc2cccnc21` , please. 6500

Tell me the measured CC50 of NCCCCN(Cc1nccs1)C1CCCc2cccnc21 (racemic) , please. 9700

Tell me the measured CC50 of NCCCCN(Cc1nc2ccccc2[nH]1)C1CCCc2cccnc21 (racemic) , please. 13000

Tell me the measured CC50 of NCCCCN(Cc1ccc2ccccc2n1)C1CCCc2cccnc21 (racemic) , please. 12000

Tell me the measured CC50 of `CN(Cc1ncc2ccccc2c1CCCN)[C@H]1CCCc2cccnc21` , please. 1000

----------
// reported CC50 per item
# Method notes: Cytotoxicity against human HOS cells expressing human CXCR4/CCR5/CD4/pHIV-LTR luciferase
# Assay type: cell-based
Expressed in µM, but write only the number.

Compound	Unit of measurement	CC50
NCCCCN(Cc1ccccn1)C1CCCc2cccnc21 (racemic)	µM	11
NCCCCN(Cc1nc2ccccc2s1)C1CCCc2cccnc21 (racemic)	µM	13
CN(C)Cc1c(CN(C)[C@H]2CCCc3cccnc32)ncc2ccccc12	µM	5.9

Switching to the query record.
Tell me the measured CC50 of `CN1CCC[C@@H]1C(=O)NCc1c(CN(C)[C@H]2CCCc3cccnc32)ncc2ccccc12` , please. 0.69

----------
# Method notes: Volume of distribution in rat at 1 mg/kg, iv
# Type: ADME, organism-based
# Design: dose 1 mg/kg, route intravenous
# Condition notes: in vivo
Endpoint: Vd (L/kg)

Consider the worked cases shown below.
Record smiles	Vd (L/kg)
CN(C)CC(=O)NCc1c(CN(C)[C@H]2CCCc3cccnc32)ncc2ccccc12	1.5
CN(C)C(=O)NCCCc1c(CN(C)[C@H]2CCCc3cccnc32)ncc2ccccc12	1.7

[1] CN(Cc1ncc2ccccc2c1CCCNS(C)(=O)=O)[C@H]1CCCc2cccnc21
[2] CN(C)CCCc1c(CN(C)[C@H]2CCCc3cccnc32)ncc2ccccc12
[3] CN(Cc1ncc2ccccc2c1CNC(=N)N)[C@H]1CCCc2cccnc21
Please list these compounds in decreasing order of Vd. Reply: labels, ordered per the request. 3, 2, 1
(3: 9 L/kg, 2: 2.9 L/kg, 1: 1.4 L/kg)

----------
# Method notes: Oral bioavailability in rat at 3 mg/kg
# Type: ADME, organism-based
# Condition notes: in vivo
Endpoint: bioavailability (%)

Record smiles	bioavailability, %
CN(Cc1ncc2ccccc2c1CCCNS(C)(=O)=O)[C@H]1CCCc2cccnc21	4
CN(C)CCCc1c(CN(C)[C@H]2CCCc3cccnc32)ncc2ccccc12	6

[I] CN(C)CC(=O)NCc1c(CN(C)[C@H]2CCCc3cccnc32)ncc2ccccc12
[II] CN(Cc1ncc2ccccc2c1CNC(=N)N)[C@H]1CCCc2cccnc21
[III] CN(C)C(=O)NCCCc1c(CN(C)[C@H]2CCCc3cccnc32)ncc2ccccc12
List by increasing bioavailability. Reply: labels, ordered per the request. II, I, III
(II: 0%, I: 10%, III: 20%)

----------
// reported CC50 per item
# Method notes: Cytotoxicity against human HOS cells expressing human CXCR4/CCR5/CD4/pHIV-LTR luciferase
# Assay type: cell-based
Expressed in µM, but write only the number.

Consider the worked cases shown below.
Compound	Measured value
NCCCCN(Cc1cc2ccccc2cn1)C1CCCc2cccnc21 (racemic)	13
CN(Cc1ncc2ccccc2c1CNC(=N)N)[C@H]1CCCc2cccnc21	9
CN(C)CC(=O)NCc1c(CN(C)[C@H]2CCCc3cccnc32)ncc2ccccc12	0.48

Tell me the measured CC50 of `CN(Cc1ncc2ccccc2c1CNS(C)(=O)=O)[C@H]1CCCc2cccnc21` , please. 2

----------
# Tested on: Human immunodeficiency virus 1
# Method notes: Antiviral activity against HIV1 3B infected in human HOS cells expressing human CXCR4/CCR5/CD4/pHIV-LTR luciferase assessed as inhibition of viral infection to cells
# Assay type: functional, organism-based
# Condition notes: Human immunodeficiency virus 1, 3B
pIC50: −log10 of the molar value.
Endpoint: pIC50

Consider the worked cases shown below.
Compound	pIC50
CN(Cc1ncc2ccccc2c1CCCNC(=N)N)[C@H]1CCCc2cccnc21	7.77
CN(Cc1ncc2ccccc2c1CN)[C@H]1CCCc2cccnc21	7.57
CN(Cc1ncc2ccccc2c1CCC#N)[C@H]1CCCc2cccnc21	7.68

[A] CN(Cc1ncc2ccccc2c1CNC(=N)N)[C@H]1CCCc2cccnc21
[B] Cn1ccnc1CN(CCCCN)C1CCCc2cccnc21 (racemic)
Choose between A and B : whose measured pIC50 value is numerically larger? Response format: the label of the selected entry. A

----------
# Method notes: Clearance in rat at 1 mg/kg, iv
# Format: ADME, organism-based
# Parameters: dose 1 mg/kg, route intravenous
# Condition notes: in vivo
Endpoint: clearance (mL/min/kg)

Record smiles	clearance (mL/min/kg)
CN(Cc1ncc2ccccc2c1CCCNS(C)(=O)=O)[C@H]1CCCc2cccnc21	9.5
CN(Cc1ncc2ccccc2c1CNC(=N)N)[C@H]1CCCc2cccnc21	16

[I] CN(C)C(=O)NCCCc1c(CN(C)[C@H]2CCCc3cccnc32)ncc2ccccc12
[II] CN(C)CC(=O)NCc1c(CN(C)[C@H]2CCCc3cccnc32)ncc2ccccc12
[III] CN(C)CCCc1c(CN(C)[C@H]2CCCc3cccnc32)ncc2ccccc12
List by increasing clearance. Reply: labels, ordered per the request. III, II, I

----------
# Study system: C-X-C chemokine receptor type 4 (Homo sapiens)
# Sequence (P61073 whole entry): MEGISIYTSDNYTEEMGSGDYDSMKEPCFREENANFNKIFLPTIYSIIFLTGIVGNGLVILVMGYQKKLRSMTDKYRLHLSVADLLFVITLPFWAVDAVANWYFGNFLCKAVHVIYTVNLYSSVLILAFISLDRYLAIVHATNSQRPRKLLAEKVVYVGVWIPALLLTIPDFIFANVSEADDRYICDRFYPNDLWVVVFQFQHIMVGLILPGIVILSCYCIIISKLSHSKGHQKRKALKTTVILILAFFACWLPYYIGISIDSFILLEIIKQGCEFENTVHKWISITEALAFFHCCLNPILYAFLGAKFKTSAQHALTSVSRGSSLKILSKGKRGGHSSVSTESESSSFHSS
# Method notes: Binding affinity to human CXCR4 expressed in HEK293 cells
Endpoint: IC50 (nM)

[a] CN(C)CC(=O)NCc1c(CN(C)[C@H]2CCCc3cccnc32)ncc2ccccc12
[b] CN(C)CCCc1c(CN(C)[C@H]2CCCc3cccnc32)ncc2ccccc12
Which has the smaller recorded IC50, a or b ? Response format: the label of the selected entry. b
(b: 3.4 nM, a: 16 nM)

----------
# System: Human immunodeficiency virus 1
# Method notes: Antiviral activity against HIV1 3B infected in human HOS cells expressing human CXCR4/CCR5/CD4/pHIV-LTR luciferase assessed as inhibition of viral infection to cells
# Assay type: functional, organism-based
# Condition notes: Human immunodeficiency virus 1, 3B
pIC50: −log10 of the molar value.
Endpoint: pIC50

[a] CN1CCC[C@@H]1C(=O)NCc1c(CN(C)[C@H]2CCCc3cccnc32)ncc2ccccc12
[b] NCCCCN(Cc1ccccn1)C1CCCc2cccnc21 (racemic)
[c] CN1CCC[C@H]1C(=O)NCc1c(CN(C)[C@H]2CCCc3cccnc32)ncc2ccccc12
[d] CN(Cc1cc2ccccc2cn1)[C@H]1CCCc2cccnc21
Hey, can you sort those compounds up there by pIC50, smallest first? Reply: labels, ordered per the request. d, b, c, a

[A] CN(Cc1ncc2ccccc2c1CCCN)[C@H]1CCCc2cccnc21
[B] CN(Cc1ncc2ccccc2c1C#N)[C@H]1CCCc2cccnc21
[C] NCCCCN(Cc1ccc2ccccc2n1)C1CCCc2cccnc21 (racemic)
List by increasing pIC50. Reply: labels, ordered per the request. B, C, A
(B: 7.14, C: 7.47, A: 7.92)

[I] CN(C)CC(=O)NCc1c(CN(C)[C@H]2CCCc3cccnc32)ncc2ccccc12
[II] NCCCCN(Cc1nccs1)C1CCCc2cccnc21 (racemic)
[III] CN(C)Cc1c(CN(C)[C@H]2CCCc3cccnc32)ncc2ccccc12
List by increasing pIC50. Reply: labels, ordered per the request. II, III, I
(II: 6.47, III: 7.32, I: 7.92)
